The values you see were collected from ChEMBL document CHEMBL1201862.

Tested on: UACC-257
Experiment: NCI tumour cell line growth inhibition, 48 h
Activity calls are given as the source filed them. Rule as the data show it: active = GI50 up to about 1.1 µM and inactive = higher.
For each record, write down the corresponding GI50.

## Task Tell me the measured GI50 of CC(C)(C)c1cc(C(=O)/C=C/c2ccc(C(=O)O)cc2)cc(C(C)(C)C)c1 , please.
## Result 10.1 µM (inactive)

## Task Tell me the measured GI50 of O=C(O)CCC(=O)N1C/C(=C\c2ccccc2)C(=O)/C(=C/c2ccccc2)C1 , please.
## Result 2.29 µM (inactive)

## Task Tell me the measured GI50 of CNS(=O)(=O)NNS(=O)(=O)c1ccc(Cl)cc1 , please.
## Result > 100 µM (inactive)

## Task Tell me the measured GI50 of COc1ccc(C(C)c2cc3c(cc2OC)OCO3)cc1 (configuration not stated) , please.
## Result 7.38 µM (inactive)

## Task Tell me the measured GI50 of O=C(O)CCC1CCc2cccc3occ1c23 (configuration not stated) , please.
## Result > 100 µM (inactive)

## Task Tell me the measured GI50 of CCC(C)OC(=O)/C(Br)=C1/OC(=O)c2ccccc2-c2ccccc21 (configuration not stated) , please.
## Result 88.7 µM (inactive)

## Task Tell me the measured GI50 of CCCCCC/C=C\CCCCCCCCCC1=CC(=O)C=C(OC)C1=O , please.
## Result 3.28 µM (inactive)

## Task Tell me the measured GI50 of COc1ccc(NC(=S)C#N)cc1 , please.
## Result > 100 µM (inactive)

## Task Tell me the measured GI50 of Cc1ccc(/C=c2\cc3oc(=O)c4cccc(c4-3)c2=O)cc1 , please.
## Result > 100 µM (inactive)

## Task Tell me the measured GI50 of Cc1ccc(C2NC(=O)c3ccccc3N2)s1 (configuration not stated) , please.
## Result 2.32 µM (inactive)

## Task Tell me the measured GI50 of O=C1CSCc2sccc21 , please.
## Result > 100 µM (inactive)

## Task Tell me the measured GI50 of C1CC2=C(C1)C1=S(S2)SC2=C1CCC2 , please.
## Result > 100 µM (inactive)

###

Quick note: these are log10(GI50) numbers for system: HCT-15
In our notation, the value equals log10 of GI50 in µM.

## Task Tell me the measured log10(GI50) of CN(C)CCn1c2ccccc2c2nc3cc4ccccc4cc3nc21 , please.
## Result 0.68

## Task Tell me the measured log10(GI50) of COC[C@H](C)/N=C/N1CCc2ccccc2C1(Cc1ccccc1)Cc1ccccc1 , please.
## Result 1.04

## Task Tell me the measured log10(GI50) of COc1ccc(C2CC(c3ccc4ccccc4c3O)=NN2)cc1OC (stereo not given) , please.
## Result 1.62

## Task Tell me the measured log10(GI50) of Cc1cc2c(Br)cc(Br)c(O)c2nc1C(=O)c1ccccc1 , please.
## Result 1.15

## Task Tell me the measured log10(GI50) of COc1ccc2c(c1)CC1c3c(cc4c(c3-2)OCO4)CCN1C (stereo not given) , please.
## Result 1.57

## Task Tell me the measured log10(GI50) of COC(=O)[C@]1(c2cc3ccccc3n2S(=O)(=O)c2ccccc2)CC2CCC1NC2 (stereo not given in full) , please.
## Result 1.19

## Task Tell me the measured log10(GI50) of CCOC(=O)/C1=C(\C)N(c2ccc(C)cc2)C(=O)c2ccccc2C(=O)c2c(OC(C)=O)ccc(OC(C)=O)c21 , please.
## Result 1.21

## Task Tell me the measured log10(GI50) of CC(C)=CCCc1c(C)ccc2c1C(=O)C(=O)C(C(C)C)=C2 , please.
## Result 0.59

## Task Tell me the measured log10(GI50) of CC1(C)C[C@H]2C=C(C=O)[C@]34C[C@]3(C(=O)OC4O)[C@H]2C1 (stereo not given in full) , please.
## Result 0.16

## Task Tell me the measured log10(GI50) of COCCOc1nc(-c2ccccc2)nc2ccccc12 , please.
## Result 1.28

## Task Tell me the measured log10(GI50) of CC(=O)OCc1cc(CCC(=O)NCCNc2c3ccccc3nc3ccccc23)cc(COC(C)=O)c1O[Si](C)(C)C(C)(C)C , please.
## Result 1.16

## Task Tell me the measured log10(GI50) of O=C1C=C(Cl)C(=O)C(c2ccc(Cl)cc2)=C1 , please.
## Result 1.27

## Task Tell me the measured log10(GI50) of COc1ccc(/C=C/C(=O)c2c(-c3ccccc3)nn(C)c(=O)c2N2CCCCC2)cc1 , please.
## Result 1.32

## Task Tell me the measured log10(GI50) of CCCCC/C=C1\CCC(CN(C)C)C1=O (stereo not given) , please.
## Result 0.50

## Task Tell me the measured log10(GI50) of c1ccc(CCN(Cc2nc3ccccc3[nH]2)Cc2nc3ccccc3[nH]2)cc1 , please.
## Result 0.87

## Task Tell me the measured log10(GI50) of O=C(O)CN1CCNCCN(CC(=O)O)CCNCC1 , please.
## Result 0.97

## Task Tell me the measured log10(GI50) of CC(C)(C)c1cc(C(=O)/C=C/c2ccc(C(=O)O)cc2)cc(C(C)(C)C)c1 , please.
## Result 0.28

## Task Tell me the measured log10(GI50) of O=C(O)CCC(=O)N1C/C(=C\c2ccccc2)C(=O)/C(=C/c2ccccc2)C1 , please.
## Result 0.31
